Reference source for all entries: patent US20260167959A1

Test system: Renilla luciferase RNA
Test: Barcoded aptazyme variant library screen: un-cleaved Renilla luciferase RNA by barcode read counts, HEK293-T cells
Assay type: cell-based
Settings: un-cleaved Renilla luciferase RNA, HEK293-T cells cultured with 1 mM theophylline (ON) over without theophylline (OFF); barcode read counts, triplicate
measurement-type: Fold change in RNA expression between the ON state and the OFF state (fold)
Numbers only, in fold.

Go through the list and state Fold change in RNA expression between the ON state and the OFF state for each entry.
1. RA249 (nucleic acid, expressed or natural sequence) DNA: GCGCGTCCTGGATTCGCGGAAACGCGTACATCCACCGGAATACCAGCATCGTCTTGATGCCCTTGGAAGTCCGGGCTGACGAGTCCCAAATAGGACGAAACGCGC
2. RA148 (nucleic acid, expressed or natural sequence) DNA: GCGCGTCCTGGATTCGCGGAAACGCGTACATCCAGCTGACGAGAGAATACCAGCATCGTCTTGATGCCCTTGGAAGTCTTCCCAAATAGGACGAAACGCGC
3. RA271 (nucleic acid, expressed or natural sequence) DNA: GCGCGTCCTGGATTCGCGGAAACGCGTACATCCAGCTGACGAGTCCCAACCGGAATACCAGCATCGTCTTGATGCCCTTGGAAGTCCGGATAGGACGAAACGCGC

Response:
1: 1.1; 2: 1.4; 3: 1.0

Request: Entry RA035 (nucleic acid, expressed or natural sequence) DNA: GCGCGTCCTGGATTCGCGGAAACGCGTACATCCAGCTGACGAGTCCCAAATAGGACGAAACGGAATACCAGCATCGTCTTGATGCCCTTGGAAGTCCGCGCGC has what Fold change in RNA expression between the ON state and the OFF state?
Response: 2.2
